measurement target: PDE7B (Homo sapiens, UniProt Q9NP56)
Construct: cell lysate containing full length PDE7A, PDE7B and PDE1C enzyme
Sequence (Q9NP56 whole entry): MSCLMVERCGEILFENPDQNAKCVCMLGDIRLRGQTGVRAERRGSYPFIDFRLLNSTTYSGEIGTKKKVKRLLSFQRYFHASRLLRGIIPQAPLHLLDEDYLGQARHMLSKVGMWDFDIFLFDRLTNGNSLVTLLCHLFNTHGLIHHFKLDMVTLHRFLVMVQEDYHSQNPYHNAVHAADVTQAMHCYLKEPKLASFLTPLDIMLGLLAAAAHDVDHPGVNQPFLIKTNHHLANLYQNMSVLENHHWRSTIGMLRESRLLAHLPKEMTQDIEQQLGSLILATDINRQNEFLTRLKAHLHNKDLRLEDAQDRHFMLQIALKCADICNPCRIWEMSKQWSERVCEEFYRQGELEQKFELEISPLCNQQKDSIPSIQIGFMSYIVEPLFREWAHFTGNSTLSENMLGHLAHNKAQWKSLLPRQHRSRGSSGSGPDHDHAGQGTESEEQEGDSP
run description: PDE7B [3H]-cAMP scintillation proximity assay (SPA) enzyme inhibition
test context: full length PDE7B in cell lysate; ~25 nM cAMP; Ki from IC50 by Cheng-Prussof equation
pKi: −log10 of the molar value.
Decision: pKi compared against 8; not below it gives class 1, below it gives class 0.

Examples from the recorded data:
O=C1Nc2c(Cl)ccc(Oc3ccccc3-c3nnn[nH]3)c2C2(CCCCC2)N1 = class 1
O=C1Nc2c(Cl)ccc(Oc3c(F)cccc3-c3noc(=O)[nH]3)c2C2(CCCCC2)N1 = class 1
O=C1Nc2c(Cl)cc(-c3ccc(C(=O)O)cc3)cc2C2(CCCCC2)N1 [Compound B, reference compound] = class 0

Lookup: Determine whether this molecule has pKi no lower than 8: O=C1Nc2c(Cl)ccc(Oc3c(F)cccc3C(=O)O)c2C2(CCCCC2)N1
Found: class 1

Lookup: In plain terms: is recorded pKi at least 8 for O=C1Nc2c(Cl)ccc(-c3ccc(F)c(C(=O)O)c3)c2C2(CCCCC2)N1 ?
Found: class 0

Lookup: Does the reported pKi for O=C1Nc2c(Cl)ccc(Oc3c(F)cccc3-c3nn[nH]n3)c2C2(CCCC2)N1 fall at or above the 8 mark?
Found: class 1

Lookup: For this molecule, is measured pKi 8 or higher? O=C1Nc2c(Cl)ccc(-c3ccc(F)c(-c4nn[nH]n4)c3)c2C2(CCCCC2)N1
Found: class 0

Lookup: Kindly determine if pKi recorded for O=C(O)COc1cccc(-c2ccc(Cl)c3c2C2(CCCCC2)NC(=O)N3)c1 is above or exactly 8.
Found: class 0

Provenance of the data: patent US20100216823A1
